measurement_target: T1, human CD3 expressed on T cells (Jurkat cells, human pan T cells/PBMC) (human, UniProt P07766 23-207)
T1 construct: whole, on cells; On T cells CD3 epsilon stands in the CD3 complex with the gamma, delta and zeta chains and the T-cell receptor; only the epsilon chain is written out; also called CD3+ Jurkat cells; human T cells
T1 sequence (P07766 23-207): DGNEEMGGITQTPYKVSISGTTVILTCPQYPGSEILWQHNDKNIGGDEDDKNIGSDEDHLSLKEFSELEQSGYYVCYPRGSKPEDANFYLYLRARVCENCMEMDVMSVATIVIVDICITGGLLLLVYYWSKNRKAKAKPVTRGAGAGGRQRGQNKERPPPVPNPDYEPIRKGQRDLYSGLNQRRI
run_description: cell ELISA on CD3+ Jurkat cells
pEC50: −log10 of the molar value.
measured_parameter: pEC50

>>> result("variant 21826, monovalent anti-CD3 scFv-heterodimeric Fc (VL hC3E-1 (D52N), VH hC3E-1(N53R_D102E)) (Fc fusion, scFv order VH-(GGGGS)3-VL on Fc chain A; chain B is Fc only; also called v21826; not shown: Fc-only chain B is also left out) scFv: EVQLVESGGGLVQPGGSLRLSCAASGVTFNYYGMSWIRQAPGKGLEWVASITRSGGRIYYPDSVKGRFTISRENTQKTLYLQMNSLRAEDTAVYYCTLDGREGWVAYWGQGTLVTVSSGGGGSGGGGSGGGGSNFMLTQPHSVSESPGKTVTISCKRNTGNIGSNYVNWYQQHEGSSPTTIIYRNDKRPDGVSDRFSGSIDRSSKSASLTISNLKTEDEADYFCQSYSSGFIFGGGTKLTVL")
"~4.44"

Where these numbers come from: patent US20210277118A1
